FYI, the data here is from the supplement of paper PMC6757056.

B1: library; a variant is named by its letters at N, in order (parent)
chain: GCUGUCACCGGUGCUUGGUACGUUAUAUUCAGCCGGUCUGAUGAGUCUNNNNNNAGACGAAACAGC

Variants of: B1
ASSAY_TEXT: normalized RNA/DNA level with ligand (relative to sTRSVctl = 100) (log10 (% of sTRSVctl)); HEK293T overexpressing SLC46A1; ligand concentration (+) RNA-Seq: 6 mM; higher = less ribozyme self-cleavage, higher mRNA level
MEASUREMENT_CONDITIONS: with (6R,S)-folinic acid; ligand present: yes
VALUE_KIND: normalized RNA/DNA level with ligand (log10)
One number for each entry.

Examples with their reported normalized RNA/DNA level with ligand (log10) follow.
| VARIANT_DESIGNATION | OBSERVED_RESULT |
| --- | --- |
| AACCCU | 2.04 |
| ACUGGA | 2 |
| UCUUCU | 2.1 |
| CUGCAU | 1.99 |
| AGUACG | 2.03 |

Please report normalized RNA/DNA level with ligand (log10) for every entry that follows.
1. GUGGUU
2. AUGACC
3. ACGGGG
4. GUGGGU
5. UUACAA
6. CGGUUC
7. CGAUAA
8. GAAAAC

Return:
[2.02, 2.02, 2.06, 2, 2.01, 2.01, 1.98, 1.98]
